- assay-target: PI3Kδ (p110δ/p85α) (Homo sapiens, UniProt O00329)
- Sequence (O00329 whole entry): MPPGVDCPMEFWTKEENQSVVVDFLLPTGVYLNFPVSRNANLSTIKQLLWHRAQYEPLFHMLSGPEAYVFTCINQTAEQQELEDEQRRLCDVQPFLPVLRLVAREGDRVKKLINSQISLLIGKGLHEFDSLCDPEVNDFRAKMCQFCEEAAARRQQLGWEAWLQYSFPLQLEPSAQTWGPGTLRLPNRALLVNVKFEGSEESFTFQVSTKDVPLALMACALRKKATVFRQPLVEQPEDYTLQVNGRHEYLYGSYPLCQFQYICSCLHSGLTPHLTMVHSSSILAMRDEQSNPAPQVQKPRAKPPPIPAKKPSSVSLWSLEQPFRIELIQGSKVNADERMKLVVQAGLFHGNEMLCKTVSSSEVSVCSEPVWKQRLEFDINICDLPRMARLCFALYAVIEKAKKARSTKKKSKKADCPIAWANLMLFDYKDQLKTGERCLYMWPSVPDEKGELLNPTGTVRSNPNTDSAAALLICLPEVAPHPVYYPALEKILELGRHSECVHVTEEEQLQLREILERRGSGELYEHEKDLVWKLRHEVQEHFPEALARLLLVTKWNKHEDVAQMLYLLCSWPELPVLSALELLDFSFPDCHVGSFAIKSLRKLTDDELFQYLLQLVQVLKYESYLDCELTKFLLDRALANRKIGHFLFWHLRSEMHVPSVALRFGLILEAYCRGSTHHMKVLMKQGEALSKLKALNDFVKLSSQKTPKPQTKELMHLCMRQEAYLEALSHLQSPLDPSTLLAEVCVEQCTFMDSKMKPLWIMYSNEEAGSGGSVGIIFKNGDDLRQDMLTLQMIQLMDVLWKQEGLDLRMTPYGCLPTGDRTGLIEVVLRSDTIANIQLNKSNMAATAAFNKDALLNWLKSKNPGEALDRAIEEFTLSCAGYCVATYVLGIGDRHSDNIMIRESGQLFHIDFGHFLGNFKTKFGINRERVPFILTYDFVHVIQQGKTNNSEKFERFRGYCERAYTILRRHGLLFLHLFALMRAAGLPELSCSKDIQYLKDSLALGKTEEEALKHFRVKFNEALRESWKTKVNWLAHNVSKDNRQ
- Sequence (P27986 whole entry partner): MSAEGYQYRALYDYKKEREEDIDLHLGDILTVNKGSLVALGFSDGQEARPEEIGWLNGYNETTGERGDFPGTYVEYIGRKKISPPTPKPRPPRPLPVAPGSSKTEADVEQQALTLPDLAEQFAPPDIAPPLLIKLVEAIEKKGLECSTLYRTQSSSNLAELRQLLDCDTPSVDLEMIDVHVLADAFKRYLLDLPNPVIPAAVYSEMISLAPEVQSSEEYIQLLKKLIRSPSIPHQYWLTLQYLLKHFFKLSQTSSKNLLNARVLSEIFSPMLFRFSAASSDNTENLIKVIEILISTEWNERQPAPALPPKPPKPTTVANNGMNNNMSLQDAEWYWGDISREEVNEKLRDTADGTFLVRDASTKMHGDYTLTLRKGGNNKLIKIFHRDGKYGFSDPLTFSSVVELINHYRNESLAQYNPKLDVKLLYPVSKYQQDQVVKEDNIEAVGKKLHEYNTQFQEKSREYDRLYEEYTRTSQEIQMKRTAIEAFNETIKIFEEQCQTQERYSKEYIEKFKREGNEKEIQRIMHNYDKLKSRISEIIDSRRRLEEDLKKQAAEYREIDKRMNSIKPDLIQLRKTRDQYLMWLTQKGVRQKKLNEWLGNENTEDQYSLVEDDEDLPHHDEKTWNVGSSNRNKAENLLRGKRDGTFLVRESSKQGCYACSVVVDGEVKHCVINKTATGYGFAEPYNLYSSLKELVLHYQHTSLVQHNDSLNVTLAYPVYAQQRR
- test-summary: PI3Kδ scintillation proximity assay (assay A)
- conditions: 20 μM PIP2, 20 μM ATP, 4 nM PI3Kδ, 210 minutes, room temperature
Catalogue of compounds with associated IC50

Consider the following illustrative entries.
{"compound": "COc1cccc(-c2c(C(C)Nc3ncnc4[nH]cnc34)cc(Cl)c3ccnn23)c1 (centres unmarked)", "assay-target": "PI3Kδ (p110δ/p85α) (Homo sapiens, UniProt O00329)", "IC50": "< 50 nM"}
{"compound": "CC(Nc1ncnc2[nH]cnc12)c1cc(Cl)c2cncn2c1N1CCN(CC2CCCO2)CC1 (centres unmarked)", "assay-target": "PI3Kδ (p110δ/p85α) (Homo sapiens, UniProt O00329)", "IC50": "200 to 750 nM"}
{"compound": "CC(Nc1ncnc2[nH]cnc12)c1cc(F)c2cncn2c1-c1cccc(F)c1 (centres unmarked)", "assay-target": "PI3Kδ (p110δ/p85α) (Homo sapiens, UniProt O00329)", "IC50": "< 50 nM"}
{"compound": "CC(Nc1ncnc2[nH]cnc12)c1cc(Cl)c2cncn2c1N1CCN(C(=O)CC#N)CC1 (centres unmarked)", "assay-target": "PI3Kδ (p110δ/p85α) (Homo sapiens, UniProt O00329)", "IC50": "< 50 nM"}
{"compound": "CC(=O)N1CCN(c2c(C(C)Nc3ncnc4[nH]cnc34)cc(Br)c3cncn23)CC1 (centres unmarked) [Example 30, bis(trifluoroacetate)]", "assay-target": "PI3Kδ (p110δ/p85α) (Homo sapiens, UniProt O00329)", "IC50": "< 50 nM"}

Observed IC50 on PI3Kδ (p110δ/p85α) (Homo sapiens, UniProt O00329) for CC(Nc1ncnc2[nH]cnc12)c1cc(Cl)c2cncn2c1N1CCN(CC2CC2)CC1 (centres unmarked) , please.
200 to 750 nM

Observed IC50 on PI3Kδ (p110δ/p85α) (Homo sapiens, UniProt O00329) for CC(Nc1ncnc2[nH]cnc12)c1cc(Cl)c2cncn2c1N1CCN(C(=O)OC(C)(C)C)CC1 (centres unmarked) , please.
50 to 200 nM

Observed IC50 on PI3Kδ (p110δ/p85α) (Homo sapiens, UniProt O00329) for CC(Nc1ncnc2[nH]cnc12)c1cc(Cl)c2cncn2c1N1CCN(S(C)(=O)=O)CC1 (centres unmarked) , please.
50 to 200 nM
